Values compiled from patent EP2545050B1.

Assignment: determine reported pEC50 for the given compounds.
test system: HCV replicon; assay: HCV replicon assay (FRET or luciferase reporter); format: cell-based; conditions: Hepatitis C virus; HCV replicon cells; Table 1
pEC50: −log10 of the molar value.

Memo: CNC(=O)c1c(-c2ccc(F)cc2)nn2ccc(-c3cc(C(=O)NC4(c5ccccn5)CC4)c(OC)nc3C)c(F)c12 , reported pEC50: 6.60 to 8.70

Memo: CNC(=O)c1c(-c2ccc(F)cc2)nn2ccc(-c3cc(C(=O)NC4(c5ccccn5)CC4)c(OC(F)F)nc3C)c(F)c12 , reported pEC50: 6.60 to 8.70

Memo: CNC(=O)c1c(-c2ccc(F)cc2)nn2ccc(-c3cc(C(=O)NC4(c5nccc(O)n5)CC4)c(OC)cc3C)c(F)c12 , reported pEC50: 5.00 to 6.00

Memo: CNC(=O)c1c(-c2ccc(F)cc2)nn2ccc(-c3cc(C(=O)NC4(c5ncccn5)CC4)c(OCC4CCOCC4)nc3C)c(F)c12 , reported pEC50: 6.60 to 8.70
